Just for reference, ChEMBL document CHEMBL5352486 is where these values come from.

IC50 listing for selected compounds.
Tested on: Leishmania tropica
Experiment: Antileishmanial activity against Leishmania tropica MHOM/A7/1974/SAF-K27 incubated for 48 hrs by XTT method
Type: functional, organism-based
Details: MHOM/A7/1974/SAF-K27, 48 h
reported-metric: IC50

[
  {
    "smiles-str": "CN1CCN(c2ncc3nc(NC(=O)c4ccc(Cl)cc4)sc3n2)CC1",
    "study-system": "Leishmania tropica",
    "recorded-value": "15.3 µg/mL"
  },
  {
    "smiles-str": "O=C(Nc1nc2cnc(N3CCCC3)nc2s1)c1ccc(Cl)c(Cl)c1",
    "study-system": "Leishmania tropica",
    "recorded-value": "> 300 µg/mL"
  },
  {
    "smiles-str": "CC(=O)N1CCN(c2ncc3nc(NC(=O)c4ccc(Cl)c([N+](=O)[O-])c4)sc3n2)CC1",
    "study-system": "Leishmania tropica",
    "recorded-value": "35.3 µg/mL"
  },
  {
    "smiles-str": "O=C(Nc1nc2cnc(Cl)nc2s1)c1ccc(Cl)c([N+](=O)[O-])c1",
    "study-system": "Leishmania tropica",
    "recorded-value": "30.7 µg/mL"
  },
  {
    "smiles-str": "CN(C)c1ncc2nc(NC(=O)c3ccc(Cl)cc3Cl)sc2n1",
    "study-system": "Leishmania tropica",
    "recorded-value": "86.2 µg/mL"
  },
  {
    "smiles-str": "O=C(Nc1nc2cnc(Cl)nc2s1)c1ccc(Cl)c(Cl)c1",
    "study-system": "Leishmania tropica",
    "recorded-value": "15.1 µg/mL"
  },
  {
    "smiles-str": "CCOC(=O)N1CCN(c2ncc3nc(NC(=O)c4ccc(Cl)cc4)sc3n2)CC1",
    "study-system": "Leishmania tropica",
    "recorded-value": "54.1 µg/mL"
  },
  {
    "smiles-str": "O=C(Nc1nc2cnc(N3CCCC3)nc2s1)c1ccc(Cl)cc1",
    "study-system": "Leishmania tropica",
    "recorded-value": "141 µg/mL"
  },
  {
    "smiles-str": "O=C(Nc1nc2cnc(N3CCOCC3)nc2s1)c1ccc(Cl)cc1Cl",
    "study-system": "Leishmania tropica",
    "recorded-value": "90.6 µg/mL"
  },
  {
    "smiles-str": "CCOC(=O)N1CCN(c2ncc3nc(NC(=O)c4ccc(Cl)cc4Cl)sc3n2)CC1",
    "study-system": "Leishmania tropica",
    "recorded-value": "> 300 µg/mL"
  }
]
